Each recorded value in this set is attributed to PubChem BioAssay (NCI).

- assayMethodText: NCI Yeast Anticancer Drug Screen. Data for the sgs1 mgt1 strain (AID 161);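 note: 0% = growth of cultures given vehicle only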
- experimentalConditions: S. cerevisiae sgs1 mgt1 strain, at 50.0 µM, active compounds read high
About 79,000 compounds went through this panel and 15% of them were active in at least one assay; those are over-represented in the sample as a whole. The source made the active and inactive calls. Cut-off read from the data, not from the text of the source: active = growth inhibition above about 70%; inactive = the rest.
Please go through the items and note down their growth inhibition.

O=C(O)Cc1ccc(Oc2ccc(CC(=O)O)cc2)cc1 ... 1.85% (inactive)
CC1CC=C2CCCCC2(C)C1C (stereo unspecified) ... 16.2% (inactive)
CC12CC1CCCC2OC(=O)c1cc([N+](=O)[O-])cc([N+](=O)[O-])c1 (stereo unspecified) ... -5.7% (inactive)

Each molecule below has a recorded value; state its growth inhibition.
1. CCOC(=O)c1cnc2cc3c(cc2c1Nc1ccc2c(c1)OCO2)OCO3
2. CCN(C(=S)Nc1cccc(C(F)(F)F)c1)c1ccccc1
3. C/C(=N\NC(=S)N1CC2CCC(CC2)C1)c1cccc(C)n1

Completion:
1: 6.85% (inactive); 2: 49% (inactive); 3: 18.8% (inactive)

---

Please provide measured growth inhibition for the entries that follow.
- assayMethodText: NCI Yeast Anticancer Drug Screen. Data for the mlh1 rad18 strain (AID 175)
- experimentalConditions: S. cerevisiae mlh1 rad18 strain growth inhibition; at 50.0 µM; active compounds read high
About 79,000 compounds went through this panel and 15% of them were active in at least one assay; those are over-represented in the sample as a whole.
Answers are plain numbers, in %.

Use the examples below as a reference point.
COC1OC2COC(C2O)C1OS(=O)(=O)c1ccc(C)cc1 (stereo unspecified) ... -13.3
Cc1nc2ccc(Cl)cc2c(Cl)c1CCCl ... 13.8
CCCCn1cnc2c(=S)nc[nH]c21 ... -0.95
COc1ccc(C(C)c2cc3c(cc2OC)OCO3)cc1 (stereo unspecified) ... 10.9
NC(Cc1ccccc1CP(=O)(O)O)C(=O)O (stereo unspecified) ... -44.2

List growth inhibition for every entry below, keeping the order given.
1. Nc1nc(C(=O)O)c([N+](=O)[O-])c(=O)[nH]1
2. CC1(c2ccc(Cl)cc2)NC(=O)N(CC(N)=O)C1=O (stereo unspecified)
3. NC(=O)Oc1ccc(Cc2ccccc2)cc1

Completion:
1: -11.8; 2: 8.6; 3: -5.05

Would you mind giving growth inhibition for every compound in the list below?
1. CC1=CC(O)(Cc2ccccc2)CC(C)(C)C1 (stereo unspecified)
2. Cn1c(=O)oc2cc(Br)ccc21
3. Cc1nc2nnc(N)n2nc1C

Completion:
1. -28.9
2. -67.8
3. 4.05

Below is a list of compounds. For each, state its recorded growth inhibition.
1. Cc1c([N+](=O)[O-])cc(C(C)(C)C)c(OC(=O)C(Cl)(Cl)Cl)c1[N+](=O)[O-]
2. CCCC(C)C(O)CC (stereo unspecified)
3. CC1(C)OC2C(=O)C3COC(O3)C2O1 (stereo unspecified)

Completion:
72.8
-10
5.8

For the 6 compounds below, give their growth inhibition values.
1. CCOC(=O)/C=C/C(=O)NN
2. N#Cc1c2c(c(=S)n(-c3ccc(Cl)cc3)c1N)CCCC2
3. Nc1cccc(CNC(=O)COc2ccc(Cl)c(Cl)c2)c1
4. CC(=O)/C(=C\n1c(=S)[nH]c2ccc([N+](=O)[O-])cc21)C(=O)Nc1ccccc1C
5. O=c1[nH]nc(Cc2ccc(Cl)cc2)n1/N=C\CC/C=N\n1c(Cc2ccc(Cl)cc2)n[nH]c1=O
6. N=c1nccnn1O

Completion:
1: 5.6; 2: -7.2; 3: 82.8; 4: -7.3; 5: -3; 6: 3.95

Could you tell me growth inhibition for each of these compounds? They are listed below.
1. Cc1onc(-c2ccc(-c3noc(C)c3C(=O)O)cc2)c1C(=O)O
2. CCS(=O)CCCN1CCc2ccccc2C1 (stereo unspecified)
3. NC(=O)c1csc(C2OC3COP(=O)(O)OC3C2O)n1 (stereo unspecified)

Completion:
1. 11.4
2. -5.95
3. -28.9

For each of the compounds below, note its growth inhibition.
1. Oc1c(Cl)cc(Cl)cc1CN(Cc1cc(Cl)cc(Cl)c1O)c1ccccc1
2. N#Cc1ccc[n+]([O-])c1
3. CC(=O)N(CCC(C)C)c1ccccc1

Completion:
[12.7, -4.6, -6.85]
